Property: pKd; scope: individual binders
- assay target: T1, soluble human BLyS (human, UniProt Q9Y275 134-285)
- T1 construct: also called hBLyS; human BAFF (BLyS)
- procedure summary: Biacore T100, binder captured by anti-human Fc, BLyS injected, 1:1 model
pKd: −log10 of the molar value.

binder	pKd
5B7 IgG1 F243A/V264A double mutein expressed in Pichia pastoris (antibody, V domains shown, IgG1 F243A/V264A (EU) double mutein, alpha-2,6-sialylated, from glycoengineered Pichia pastoris; also called 5B7-DM; 5B7-DM Pichia) VH: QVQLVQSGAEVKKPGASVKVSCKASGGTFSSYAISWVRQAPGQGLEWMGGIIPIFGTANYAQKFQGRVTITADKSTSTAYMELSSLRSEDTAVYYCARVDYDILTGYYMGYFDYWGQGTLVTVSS VL: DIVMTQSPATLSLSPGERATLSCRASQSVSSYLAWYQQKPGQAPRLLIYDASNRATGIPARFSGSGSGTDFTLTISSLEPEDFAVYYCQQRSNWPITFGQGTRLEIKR	10.17
belimumab (antibody, V domains shown) VH: QVQLQQSGAEVKKPGSSVRVSCKASGGTFNNNAINWVRQAPGQGLEWMGGIIPMFGTAKYSQNFQGRVAITADESTGTASMELSSLRSEDTAVYYCARSRDLLLFPHHALSPWGRGTMVTVSS VL: SSELTQDPAVSVALGQTVRVTCQGDSLRSYYASWYQQKPGQAPVLVIYGKNNRPSGIPDRFSGSSSGNTASLTITGAQAEDEADYYCSSRDSSGNHWVFGGGTELTVLG	9.78
6C10 IgG1 F243A/V264A double mutein expressed in Pichia pastoris (antibody, V domains shown, IgG1 F243A/V264A (EU) double mutein, alpha-2,6-sialylated, from glycoengineered Pichia pastoris; also called 6C10-DM; 6C10-DM (Pichia)) VH: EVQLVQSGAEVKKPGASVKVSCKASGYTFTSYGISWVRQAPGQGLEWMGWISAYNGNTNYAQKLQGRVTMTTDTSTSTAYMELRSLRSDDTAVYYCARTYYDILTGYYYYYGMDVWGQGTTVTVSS VL: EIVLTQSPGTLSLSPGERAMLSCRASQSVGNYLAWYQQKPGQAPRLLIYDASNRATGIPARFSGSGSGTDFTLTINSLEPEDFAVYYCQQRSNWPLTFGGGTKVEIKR	10.17
8D12 IgG1 F243A/V264A double mutein expressed in Pichia pastoris (antibody, V domains shown, IgG1 F243A/V264A (EU) double mutein, alpha-2,6-sialylated, from glycoengineered Pichia pastoris; also called 8D12-DM; 8D12-DM (Pichia)) VH: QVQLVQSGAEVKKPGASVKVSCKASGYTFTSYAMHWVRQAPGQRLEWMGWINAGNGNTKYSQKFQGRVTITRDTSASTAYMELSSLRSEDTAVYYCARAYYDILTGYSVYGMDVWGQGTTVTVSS VL: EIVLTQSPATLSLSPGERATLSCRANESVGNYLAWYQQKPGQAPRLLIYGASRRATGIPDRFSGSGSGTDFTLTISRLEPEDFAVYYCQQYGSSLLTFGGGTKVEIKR	10.31
mouse TACI (R&D Systems receptor chimera) (receptor, UniProt Q9ET35 2-129, looked up, not shown: a dimerising Fc or GST, also called mTACI; TACI rec Mouse) AMAFCPKDQYWDSSRKSCVSCALTCSQRSQRTCTDFCKFINCRKEQGRYYDHLLGACVSCDSTCTQHPQQCAHFCEKRPRSQANLQPELGRPQAGEVEVRSDNSGRHQGSEHGPGLRLSSDQLTLYCT	9.22
